# Target Desc: T1, Jab1/CSN5 subunit of signalosome, recombinant (UniProt Q92905 1-334, limits assumed)
# T1 construct: Produced in recombinant form as a control JAMM domain protein; the construct is not described
# T1 sequence (Q92905 whole entry, the tested form may be a part): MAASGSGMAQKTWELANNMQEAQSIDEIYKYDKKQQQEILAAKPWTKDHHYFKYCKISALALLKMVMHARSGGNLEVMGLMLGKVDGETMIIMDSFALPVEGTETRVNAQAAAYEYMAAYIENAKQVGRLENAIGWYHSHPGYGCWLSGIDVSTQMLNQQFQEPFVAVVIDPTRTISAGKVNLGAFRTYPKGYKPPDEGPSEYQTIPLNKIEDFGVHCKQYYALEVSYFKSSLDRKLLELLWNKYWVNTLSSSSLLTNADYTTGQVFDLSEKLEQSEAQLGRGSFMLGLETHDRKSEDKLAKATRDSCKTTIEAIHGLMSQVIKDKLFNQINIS
# Protocol Notes: protein-protein interaction assay with GST-BRCA1 fragments

Binder	binding result
GST-BRCA1 fragment F1 (BRCA1 residues 1-324) (other, Produced in bacteria; also called fragment 1; not shown: glutathione S-transferase (GST) fusion tag) MDLSALRVEEVQNVINAMQKILECPICLELIKEPVSTKCDHIFCKFCMLKLLNQKKGPSQCPLCKNDITKRSLQESTRFSQLVEELLKIICAFQLDTGLEYANSYNFAKKENNSPEHLKDEVSIIQSMGYRNRAKRLLQSEPENPSLQETSLSVQLSNLGTVRTLRTKQRIQPQKTSVYIELGSDSSEDTVNKATYCSVGDQELLQITPQGTRDEISLDSAKKAACEFSETDVTNTEHHQPSNNDLNTTEKRAAERHPEKYQGSSVSNLHVEPCGTNTHASSLQHENSSLLLTKDRMNVEKAEFCNKSKQPGLARSQHNRWAGS	no binding
GST-BRCA1 fragment F4 (BRCA1 residues 758-1064) (other, Produced in bacteria; also called fragment 4; not shown: glutathione S-transferase (GST) fusion tag) LQTERSVESSSISLVPGTDYGTQESISLLEVSTLGKAKTEPNKCVSQCAAFENPKGLIHGCSKDNRNDTEGFKYPLGHEVNHSRETSIEMEESELDAQYLQNTFKVSKRQSFAPFSNPGNAEEECATFSAHSGSLKKQSPKVTFECEQKEENQGKNESNIKPVQTVNITAGFPVVGQKDKPVDNAKCSIKGGSRFCLSSQFRGNETGLITPNKHGLLQNPYRIPPLFPIKSFVKTKCKKNLLEENFEEHSMSPEREMGNENIPSTVSTISRNNIRENVFKEASSSNINEVGSSTNEVGSSINEIGSS	no binding

Just for reference, patent US20040072268A1 is where these values come from.
